# test target: MAPK14 (human) (UniProt Q16539)
# Sequence (Q16539 whole entry, looked up): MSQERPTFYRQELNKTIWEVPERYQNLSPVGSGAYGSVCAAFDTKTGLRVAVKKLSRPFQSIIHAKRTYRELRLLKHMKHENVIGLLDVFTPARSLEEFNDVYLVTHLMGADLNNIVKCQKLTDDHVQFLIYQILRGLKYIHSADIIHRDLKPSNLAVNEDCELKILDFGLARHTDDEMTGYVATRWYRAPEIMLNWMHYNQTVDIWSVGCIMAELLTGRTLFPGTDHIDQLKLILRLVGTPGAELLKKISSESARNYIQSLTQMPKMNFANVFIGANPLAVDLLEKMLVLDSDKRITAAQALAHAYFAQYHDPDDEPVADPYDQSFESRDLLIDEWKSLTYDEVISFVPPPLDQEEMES
# assay method text: radiometric filter-binding kinase assay, Kinase HotSpot
# condition: compound 0.5 µM; ATP 10 µM
measured metric: residual activity (%)
Provide only the numeric value, understood in %.

// known answers, use as guide
Query (molecule): COc1ccc2c(c1)/C(=C/c1cnc[nH]1)C(O)=N2 ; field requested: residual activity
97.7

Query (molecule): Fc1ccc(-c2nc3n(c2-c2ccncc2)CCS3)cc1 ; field requested: residual activity
43.1

Query (molecule): CN(C)S(=O)(=O)c1ccc2c(c1)/C(=C/c1cc3c([nH]1)CCCC3)C(=O)N2 ; field requested: residual activity
98.8

Query (molecule): COc1ccc2c(c1)c(C1=C(c3c[nH]c4ccccc34)C(=O)NC1=O)cn2CCCN(C)C ; field requested: residual activity
103

Query (molecule): CCCCc1c(-c2ccc(OC)cc2)[nH]c2nccnc12 ; field requested: residual activity
112

New cases:
Query (molecule): Cc1cccc(-c2nc(C(C)(C)C)[nH]c2-c2ccc3c(c2)OCO3)n1 ; field requested: residual activity
89.7

----------
# test target: ZAP70 (human)
# assay method text: radiometric filter-binding kinase assay, Kinase HotSpot
# condition: compound 0.5 µM; ATP 10 µM
# reported residual activity; entries follow
Provide only the numeric value, understood in %.

Query (compound): O=C1C(Cl)=C(N2C(=O)CCC2=O)C(=O)c2ccccc21 ; field requested: residual activity
93.8

Query (compound): CO[C@@H]1[C@H](N(C)C(=O)c2ccccc2)C[C@H]2O[C@]1(C)n1c3ccccc3c3c4c(c5c6ccccc6n2c5c31)C(=O)NC4 ; field requested: residual activity
65.4

Query (compound): Cc1cccc(-c2nc(C(C)(C)C)[nH]c2-c2ccc3c(c2)OCO3)n1 ; field requested: residual activity
106

Query (compound): CN(C)CCCn1cc(C2=C(c3c[nH]c4ccccc34)C(=O)NC2=O)c2ccccc21 ; field requested: residual activity
93

Query (compound): CCCCc1c(-c2ccc(OC)cc2)[nH]c2nccnc12 ; field requested: residual activity
74.2

Query (compound): N#C/C(=C\c1ccc(O)c(O)c1)C(=O)NCc1ccccc1 ; field requested: residual activity
101

Query (compound): COc1ccc2c(c1)c(C1=C(c3c[nH]c4ccccc34)C(=O)NC1=O)cn2CCCN(C)C ; field requested: residual activity
90.3

Query (compound): COc1ccc(S(=O)(=O)N(CCO)c2ccccc2CN(C)C/C=C/c2ccc(Cl)cc2)cc1 ; field requested: residual activity
84.7

New cases:
Query (compound): COc1cc2ncnc(Nc3ccc(Oc4ccccc4)cc3)c2cc1OC ; field requested: residual activity
97

Query (compound): COc1cc2ncnc(Nc3ccc(OCc4ccccc4)cc3)c2cc1OC ; field requested: residual activity
87.6

----------
# reported residual activity; entries follow
# test target: PRKCG (human)
# assay method text: radiometric filter-binding kinase assay, Kinase HotSpot
# condition: compound 0.5 µM; ATP 10 µM
Provide only the numeric value, understood in %.

// known answers, use as guide
Query (compound): CN(C)CCCn1cc(C2=C(c3c[nH]c4ccccc34)C(=O)NC2=O)c2ccccc21 ; field requested: residual activity
17.6

Query (compound): NC(=O)c1cccc(-c2cc(Nc3ccc(OC(F)(F)F)cc3)ncn2)c1 ; field requested: residual activity
83.6

Query (compound): Cn1c2ccccc2c2c3c(c4c5ccccc5n(CCC#N)c4c21)CNC3=O ; field requested: residual activity
72.1

Query (compound): Cc1nc(-c2ccccc2)c(-c2ccncc2)o1 ; field requested: residual activity
101

Query (compound): N#C/C(=C\c1ccc(O)c(O)c1)C(=O)NCc1ccccc1 ; field requested: residual activity
97.2

New cases:
Query (compound): COc1ccc(S(=O)(=O)N(CCO)c2ccccc2CN(C)C/C=C/c2ccc(Cl)cc2)cc1 ; field requested: residual activity
95.1

Query (compound): O=C1c2ccccc2-c2nc3nnnn3nc21 ; field requested: residual activity
59.3

Query (compound): Cc1cncc2cccc(S(=O)(=O)N3CCCN(C(=O)CN)C[C@H]3C)c12 ; field requested: residual activity
101

Query (compound): COc1ccc(C(=O)Nc2sc3c(c2C(N)=O)CCCC3)cc1OC ; field requested: residual activity
93

Query (compound): CN(C)S(=O)(=O)c1ccc2c(c1)/C(=C/c1cc3c([nH]1)CCCC3)C(=O)N2 ; field requested: residual activity
86.8
